experiment.notes: Cmax in mouse at 10 mg/kg, ip measured upto 24 hrs
Type: ADME, organism-based
test.settings: in vivo
quantity.kind: Cmax (ng/mL)
Express the result in ng/mL but write the number alone.

*Q* Which measured Cmax value corresponds to `CN1c2ccc(F)cc2C(=O)N2CCc3c([nH]c4ccc(O[C@@H]5O[C@H](CO)[C@@H](O)[C@H](O)[C@H]5O)cc34)[C@H]21` ?
*A* 4630

###

experiment.notes: Solubility of the compound in double distilled water measured upto 30 mins by UV-vis spectrophotometry
Type: physicochemical
quantity.kind: solubility at 0.5 h (µg/mL)
Numeric answer only, unit µg/mL assumed.

*Q* # input compound: `CN1c2ccc(F)cc2C(=O)N2CCc3c([nH]c4ccc(OCc5cn(CCCO[C@@H]6O[C@H](CO)[C@@H](O)[C@H](O)[C@H]6O)nn5)cc34)[C@H]21` ; wanted: its solubility at 0.5 h
*A* 2020

*Q* // solubility at 0.5 h lookup, key: `CN1c2ccc(F)cc2C(=O)N2CCc3c([nH]c4ccc(O[C@@H]5O[C@H](CO)[C@@H](O)[C@H](O)[C@H]5O)cc34)[C@H]21`
*A* 2150

*Q* Sample `CN1c2ccc(F)cc2C(=O)N2CCc3c([nH]c4ccc(OC(=O)CCC(=O)NCCCO[C@@H]5O[C@H](CO)[C@@H](O)[C@H](O)[C@H]5O)cc34)[C@H]21` — what was its solubility at 0.5 h?
*A* 1990

*Q* Data request, read-out solubility at 0.5 h, for `CN1c2ccc(F)cc2C(=O)N2CCc3c([nH]c4ccc(OC(=O)CCCC(=O)NCCCO[C@@H]5O[C@H](CO)[C@@H](O)[C@H](O)[C@H]5O)cc34)[C@H]21`
*A* 2470

*Q* Field request: solubility at 0.5 h | item: `CN1c2ccc(F)cc2C(=O)N2CCc3c([nH]c4ccc(O)cc34)[C@H]21`
*A* 145

###

Test system: U-87 MG
experiment.notes: Antiproliferative activity against human U-87 MG cells measured after 72 hrs by CCK-8 cells
Type: functional, cell-based, U-87MG ATCC
quantity.kind: IC50 (nM)
API: value field is a number in nM; no unit string.

*Q* Reported IC50 for U-87 MG, given `CN1c2ccc(F)cc2C(=O)N2CCc3c([nH]c4ccc(OC(=O)CCC(=O)NCCCO[C@@H]5O[C@H](CO)[C@@H](O)[C@H](O)[C@H]5O)cc34)[C@H]21` ?
*A* 49

*Q* Query IC50 on U-87 MG for `CN1c2ccc(F)cc2C(=O)N2CCc3c([nH]c4ccc(O[C@@H]5O[C@H](CO)[C@@H](O)[C@H](O)[C@H]5O)cc34)[C@H]21`
*A* 64

*Q* Under U-87 MG: IC50 value of `CN1c2ccc(F)cc2C(=O)N2CCc3c([nH]c4ccc(OC(=O)CCCC(=O)NCCCO[C@@H]5O[C@H](CO)[C@@H](O)[C@H](O)[C@H]5O)cc34)[C@H]21` ?
*A* 54

###

experiment.notes: MRT (0 to t) in mouse at 10 mg/kg, ip measured upto 24 hrs
Type: ADME, organism-based
test.settings: in vivo
quantity.kind: MRT last at 24 h (min)
Report only the number, with the unit min understood.

*Q* What does the data say about its MRT last at 24 h? Entry: `CN1c2ccc(F)cc2C(=O)N2CCc3c([nH]c4ccc(O[C@@H]5O[C@H](CO)[C@@H](O)[C@H](O)[C@H]5O)cc34)[C@H]21`
*A* 48.1

meta.source: ChEMBL document CHEMBL5543158
